Test system: MCF7 breast
Assay: NCI-60 one-dose screen, 48 h (100 = growth as untreated, 0 = no growth, -100 = all killed)
Details: 10 µM unless noted
This is part of a sample that, as a whole, favours compounds with a hit. Of some 83,000 tested, about 20% had one in any assay.
Label Met when growth is strictly below 50%; at or above that, label Not met.

{"COMPOUND": "CC1O[C@@H](OC2[C@H](OC(=O)/C=C/c3ccc(O)c(O)c3)C(COC3O[C@H](C)C(O)C(O)[C@@H]3O)O[C@@H](OCCc3ccc(O)c(O)c3)[C@H]2O)[C@@H](O)C(O)[C@H]1O (stereo partly drawn)", "CLASS_LABEL": "Not met"}
{"COMPOUND": "O=[N+]([O-])c1ccc(C2CC(c3ccccc3)=Nc3ccccc3S2)cc1 (stereo not drawn)", "CLASS_LABEL": "Met"}
{"COMPOUND": "COc1ccc2[nH]c(O)c(/C=c3/cc4c(c(-c5cc(OC)c(OC)c(OC)c5)n3)=Nc3ccccc3-4)c2c1", "CLASS_LABEL": "Met"}
{"COMPOUND": "O=C(/C=C/c1cccc(O)c1)c1cccc(-n2cc(-c3ccc4ccccc4c3)[nH]c2=O)c1", "CLASS_LABEL": "Met"}
{"COMPOUND": "COc1cc(C2CC(=O)Nc3c2c(C)nn3-c2nc3ccccc3[nH]2)c(OC)c(OC)c1OC (stereo not drawn)", "CLASS_LABEL": "Met"}
{"COMPOUND": "O=c1c2c3c(sc2n2c(-c4cc(-c5ccccc5)nn4-c4ccccc4)nnc2n1Cc1ccccc1)CCCC3", "CLASS_LABEL": "Not met"}
{"COMPOUND": "COc1cc(/C=C2\\C(=O)ON=C2C)cc(OC)c1OC", "CLASS_LABEL": "Not met"}
{"COMPOUND": "O=C(CCCCCCSc1nc(-c2ccccc2)cc(-c2ccc(Cl)cc2)n1)NO", "CLASS_LABEL": "Met"}
{"COMPOUND": "Cn1c(=O)c2c(nc(Cl)n2CCl)n(C)c1=O", "CLASS_LABEL": "Not met"}
{"COMPOUND": "Cc1c(O)cc(-c2cnc(N/N=C\\c3ccc(Cl)cc3)s2)c(O)c1C", "CLASS_LABEL": "Not met"}
{"COMPOUND": "CCOC(=O)c1c2c(n3ccc(NC(=O)OC(C)(C)C)cc13)C(=O)c1ncccc1C2=O", "CLASS_LABEL": "Met"}
{"COMPOUND": "CCOc1ccccc1-n1c(CN2CCN(C(=O)COc3ccc(CNCCCCCCN4C5CCCC4CC(OC(=O)Nc4cc(C)ccc4OC)C5)cc3)CC2)nc2ccccc2c1=O (stereo not drawn)", "CLASS_LABEL": "Met"}
{"COMPOUND": "CCN1C(=O)N(CC)C2Nn3c(s/c(=C4\\C(=O)N(C)c5ccccc54)c3=O)=NC21 (stereo not drawn)", "CLASS_LABEL": "Met"}
{"COMPOUND": "CCCCOc1nc2ccccc2cc1C1CNC(=O)c2ccccc2N1 (stereo not drawn)", "CLASS_LABEL": "Met"}
{"COMPOUND": "O=C1N=c2cc3c(cc2=C/C1=C/c1sc(=S)n(CCc2ccc(O)cc2)c1O)OCCO3", "CLASS_LABEL": "Met"}
{"COMPOUND": "C=C(C)[C@@H]1CC=C2c3sc(-c4ccc(C)cc4)nc3C[C@@H](C)[C@]2(C)C1", "CLASS_LABEL": "Not met"}
{"COMPOUND": "O=C(NC(Cc1nnc2n(Cc3ccccc3)c(=O)c3c4c(sc3n12)CCCC4)c1ccc(Cl)cc1)c1ccccc1 (stereo not drawn)", "CLASS_LABEL": "Not met"}
